target: Epidermal growth factor receptor (Homo sapiens); test: Inhibitory activity of compound against Epidermal growth factor receptor autophosphorylation
Sequence (P00533 whole entry): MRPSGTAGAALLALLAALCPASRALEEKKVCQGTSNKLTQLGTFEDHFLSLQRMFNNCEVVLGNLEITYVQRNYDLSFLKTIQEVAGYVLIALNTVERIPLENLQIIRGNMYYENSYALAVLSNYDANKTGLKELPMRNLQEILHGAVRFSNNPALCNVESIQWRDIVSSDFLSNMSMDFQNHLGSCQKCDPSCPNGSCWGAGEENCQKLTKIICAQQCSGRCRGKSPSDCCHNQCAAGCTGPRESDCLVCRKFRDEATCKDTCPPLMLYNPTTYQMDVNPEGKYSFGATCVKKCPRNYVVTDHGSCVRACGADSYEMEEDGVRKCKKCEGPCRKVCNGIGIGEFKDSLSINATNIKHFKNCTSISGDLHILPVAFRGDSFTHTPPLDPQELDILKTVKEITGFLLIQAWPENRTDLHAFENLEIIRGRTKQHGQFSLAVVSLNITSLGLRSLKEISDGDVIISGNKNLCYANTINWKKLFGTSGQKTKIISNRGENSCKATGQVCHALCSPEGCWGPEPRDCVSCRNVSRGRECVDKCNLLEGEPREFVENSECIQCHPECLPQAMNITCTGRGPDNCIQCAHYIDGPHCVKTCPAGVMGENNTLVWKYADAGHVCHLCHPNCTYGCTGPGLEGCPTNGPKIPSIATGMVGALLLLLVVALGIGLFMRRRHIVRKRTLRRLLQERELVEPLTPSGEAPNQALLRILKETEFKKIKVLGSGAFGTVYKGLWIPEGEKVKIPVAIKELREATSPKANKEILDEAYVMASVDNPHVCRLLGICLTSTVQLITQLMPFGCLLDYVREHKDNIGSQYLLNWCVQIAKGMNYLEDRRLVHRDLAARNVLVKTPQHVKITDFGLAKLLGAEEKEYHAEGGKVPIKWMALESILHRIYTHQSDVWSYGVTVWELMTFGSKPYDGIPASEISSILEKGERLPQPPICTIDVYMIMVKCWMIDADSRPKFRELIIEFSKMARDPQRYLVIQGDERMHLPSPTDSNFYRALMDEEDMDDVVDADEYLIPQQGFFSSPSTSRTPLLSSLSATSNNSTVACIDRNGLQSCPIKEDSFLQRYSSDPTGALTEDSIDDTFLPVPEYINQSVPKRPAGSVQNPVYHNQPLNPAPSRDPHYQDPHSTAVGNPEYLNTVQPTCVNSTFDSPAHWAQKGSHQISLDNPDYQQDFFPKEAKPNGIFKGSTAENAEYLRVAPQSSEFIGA
pIC50: −log10 of the molar value.
readout.kind: pIC50

Recorded result, `COc1cc(/C=C(\C#N)C(=O)NCCCCNC(=O)/C(C#N)=C/c2cc(Br)c(O)c(OC)c2)cc(Br)c1O` , pIC50: 3.99

[A] N#C/C(=C\c1ccc(O)c(O)c1)S(=O)(=O)/C(C#N)=C/c1ccc(O)c(O)c1
[B] N#C/C(=C\c1ccc(O)c(O)c1)C(=O)NCCCCCNC(=O)/C(C#N)=C/c1ccc(O)c(O)c1
Q: Given A and B , report the one with the higher recorded pIC50. Reply with the label of the item you choose.
Result: A
